# Species: Oryctolagus cuniculus
# assayExplanation: Calcium channel blocking activity in rabbit
# Assay type: functional
pIC50: −log10 of the molar value.
measuredEndpoint: pIC50

As a guide, the following entries are already answered.
compound="COC(=O)C1=C(C)N(CCN(C)C)c2ccccc2SC1c1cccc([N+](=O)[O-])c1 (stereo not drawn)" datavalue=5.96
compound="CC1=Nc2ccccc2SC(c2cccc([N+](=O)[O-])c2)/C1=C(\\O)OC(C)C (stereo not drawn)" datavalue=6.30
compound=COC(=O)C1=C(C)NC(C)=C(C(=O)OC)C1c1ccccc1[N+](=O)[O-] datavalue=9.00
compound="CO/C(O)=C1\\C(C)=Nc2ccccc2SC1c1cccc([N+](=O)[O-])c1 (stereo not drawn)" datavalue=5.92
compound="CO/C(O)=C1\\C(C)=Nc2ccccc2SC1c1ccccc1[N+](=O)[O-] (stereo not drawn)" datavalue=6.52

I = CCO/C(O)=C1\C(C)=Nc2ccccc2SC1c1cccc([N+](=O)[O-])c1 (stereo not drawn)
II = CCO/C(O)=C1\C(C)=Nc2ccccc2NC1c1cccc([N+](=O)[O-])c1 (stereo not drawn)
III = CO/C(O)=C1\C(C)=Nc2ccccc2SC1c1ccc(OC)cc1 (stereo not drawn)
IV = CO/C(O)=C1\C(C)=Nc2ccccc2S(=O)(=O)C1c1ccccc1 (stereo not drawn)
V = COc1ccc([C@@H]2Sc3ccccc3N(CCN(C)C)C(=O)[C@@H]2OC(C)=O)cc1
Task item: Arrange these compounds by their pIC50, starting with the largest number. // format: requested-order list of labels
Reply: I, V, II, IV, III

1 = CO/C(O)=C1\C(C)=Nc2ccccc2SC1c1ccccc1 (stereo not drawn)
2 = CO/C(O)=C1\C(C)=Nc2ccccc2SC1c1ccc([N+](=O)[O-])cc1 (stereo not drawn)
Task item: Would you let me know which has the greater pIC50 value, 1 or 2 ? Reply briefly: the label of your chosen item.
Reply: 1
(1: 5.77, 2: 5.52)
